Please find below IC50 measurements for cGMP-specific 3',5'-cyclic phosphodiesterase (Bos taurus), combined from several publications.

COc1ccc([C@H]2c3[nH]c4ccccc4c3C[C@@H]3C(=O)N(Cc4ccccc4)CN23)cc1: 60 nM
COc1ccc([C@@H]2c3[nH]c4ccccc4c3C[C@@H]3C(=O)N([C@@H]4CCN(Cc5ccc6c(c5)OCO6)C4)CC(=O)N23)cc1OC: > 10000 nM

CCCCN1C(=O)[C@H]2Cc3c([nH]c4ccccc34)[C@H](c3ccc(C#N)cc3)N2C1=O yielded IC50 of 300 nM

Recorded result, CN1C(=O)c2[nH]c(CC3CC3)nc2N2C1=N[C@@H]1CCC[C@@H]12 , IC50: 610 nM

---

System: cGMP-specific 3',5'-cyclic phosphodiesterase (Bos taurus) | Read-out: IC50 | Origin: multiple publications

Below, 8 compounds whose answers are already recorded.
CN1C(=O)c2[nH]c(Cc3ccccc3)nc2N2CC3(CCCC3)N=C12: 19 nM
CCCCN1C(=O)[C@H]2Cc3c([nH]c4ccccc34)[C@H](c3ccccc3)N2C1=O: 20 nM
CCCCN1C(=O)[C@H]2Cc3c([nH]c4ccccc34)[C@@H](c3ccccc3)N2C1=O: 60 nM
Cn1ccnc1CN1CC[C@@H](N2CC(=O)N3[C@H](c4ccc5c(c4)OCO5)c4[nH]c5ccccc5c4C[C@@H]3C2=O)C1: 1 nM
CC(C)CCc1nc2c(n1Cc1ccccc1)C(=O)N(C)C1=N[C@@H]3CCC[C@@H]3N12: 560 nM
COc1ccc(N2CC(=O)N3[C@H](c4ccc5c(c4)OCO5)c4[nH]c5ccccc5c4C[C@@H]3C2=O)cc1: 16 nM
COc1ccc(CNc2ncnc3c(CCO)c(OC)c(N(C)C(=O)C(C)C)cc23)cc1Cl: 3 nM
CN1C(=O)c2[nH]c(Cc3ccc(-c4ccccc4)cc3)nc2N2CC3(CCCC3)N=C12: 43 nM

Noted IC50 for CN1C(=O)c2[nH]c(C#Cc3ccccc3)nc2N2C1=N[C@@H]1CCC[C@@H]12 , tested on cGMP-specific 3',5'-cyclic phosphodiesterase (Bos taurus): 6000 nM

// assay cGMP-specific 3',5'-cyclic phosphodiesterase (Bos taurus), entry CCCCN1C(=O)[C@H]2Cc3c([nH]c4ccccc34)[C@@H](c3ccncc3)N2C1=O , IC50 value = 300 nM

---

Compiled pIC50 measurements on cGMP-specific 3',5'-cyclic phosphodiesterase (Bos taurus) taken from the literature.
Field pIC50 (float): negative decimal logarithm of the concentration in molar.

Solved cases below.
O=C1[C@H]2Cc3c([nH]c4ccccc34)[C@@H](c3ccc4c(c3)OCO4)N2C(=O)CN1c1ccc(Cl)cc1: 6.87
CN1C(=O)c2c(nc(Cc3ccccc3)n2CC2CCCCC2)N2C1=N[C@@H]1CCC[C@@H]12: 6.96
CN1C(=O)c2c(nc(Cc3ccc(-c4ccccc4)cc3)n2Cc2ccccc2)N2CC3(CCCC3)N=C12: 6.70
CCCCN1CC(=O)N2C(c3ccc(OC)cc3)c3[nH]c4ccccc4c3C[C@@H]2C1=O (stereo partly specified): 7.15
CCCCN1C(=O)[C@H]2Cc3c([nH]c4ccccc34)[C@H](c3ccccc3OC)N2C1=O: 6.00
Cc1nn(Cc2ccccc2)c2c1C(=O)N(C)C1=N[C@@H]3CCC[C@@H]3N12: 6.00
CN1C(=O)c2c(nn(C)c2Cc2ccccc2)N2CC3(CCCC3)N=C12: 7.12
COc1ccc([C@H]2c3[nH]c4ccccc4c3C[C@@H]3C(=O)N(C4CCCCC4)C(=O)N23)cc1: 8.52

Short answer on cGMP-specific 3',5'-cyclic phosphodiesterase (Bos taurus) for O=C1[C@H]2Cc3c([nH]c4ccccc34)[C@@H](c3ccc4c(c3)OCO4)N2C(=O)CN1c1ccc([N+](=O)[O-])cc1 , pIC50: 6.91

The molecule COCc1nc2c([nH]1)c(=O)n(C)c(=O)n2CC(C)C , tested on cGMP-specific 3',5'-cyclic phosphodiesterase (Bos taurus), showed pIC50 of 5.00
